# test: chemical genetic growth profiling, strain panel (AID 1159580);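 also: tested at 20 µM; growth read once vehicle control cultures reached saturation at 30 °C; 1 = growth at the plate median or of vehicle wells; lower values mean less growth of the strain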
# setupConditions: S. cerevisiae deletion strains, growth OD, locus YNL222W, strain SSU72, hits give low values
Out of some 5,500 compounds screened, about 2,000 (36%) were called active. About 18% were inconclusive and are not listed. The list shows a part of the results.
experimentalEndpoint: normalized growth

> print(dat)
                                entrysmiles  testresult
1  Cn1c([N+](=O)[O-])cnc1/C=C(\C#N)C(=O)Nc1ccc(F)cc1       0.411
2  Cc1c(C(=O)N2CCCCC2)cc(-c2ccccc2)n1-c1ccccc1       0.949
3     S=C(Nc1cc(-c2cccs2)[nH]n1)Nc1ccccc1Cl       0.939
4  Cn1cncc1S(=O)(=O)/C(C#N)=C/c1ccccc1Sc1ccc(Cl)cc1        0.98
5  O=C(Nc1cc(Cl)cc(Cl)c1)Nc1cc(-c2cccs2)[nH]n1       0.957
6  O=[N+]([O-])c1cc(C(F)(F)F)ccc1-n1ccc(-c2cccs2)n1       0.965
7  O=C(Nc1cc(Cl)cc(Cl)c1)Nc1cc(-c2ccco2)[nH]n1       0.923

====

# test: chemical genetic growth profiling, strain panel (AID 1159580);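 also: tested at 20 µM; growth read once vehicle control cultures reached saturation at 30 °C; 1 = growth at the plate median or of vehicle wells; lower values mean less growth of the strain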
# setupConditions: S. cerevisiae deletion strains, growth OD, locus YDL101C, strain DUN1, hits give low values
About 2,000 (36%) of roughly 5,500 compounds were called active. Inconclusive results (about 18%) are left out. The list shows a part of the results.
In this section we review reported normalized growth values for a set of molecules.
experimentalEndpoint: normalized growth

> print(dat)
                                   molecule  testresult
1  COC1C(O)C(O)C(O)[C@@H](O)C1O (some centres not stated)        1.01
2  COc1ccc2c(c1)C1(C)CCC(=O)CC1CC2 (configuration not stated)       0.998
3       Cc1ccc2c(c1)CC[C@H]1CC(=O)CC[C@]21C        1.01
4  COc1cccc2c1CCC1CC(=O)CCC21C (configuration not stated)       0.986
5  CC12CCC(C1)C(C)(C)C2NC(=O)c1cccs1 (configuration not stated)       0.995
6   COc1ccc2c(c1)[C@@]1(C)CCC(=O)C[C@H]1CC2           1
7  O=C(Oc1cc(Cl)c(Cl)cc1Cl)C1c2ccccc2Oc2ccccc21       0.945

====

# test: chemical genetic growth profiling, strain panel (AID 1159580);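 also: tested at 20 µM; growth read once vehicle control cultures reached saturation at 30 °C; 1 = growth at the plate median or of vehicle wells; lower values mean less growth of the strain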
# setupConditions: S. cerevisiae deletion strains, growth OD, locus YDL101C, strain DUN1
Out of some 5,500 compounds screened, about 2,000 (36%) were called active. Not shown: some 18% with an inconclusive outcome. No stated cut-off is given here; in the data, active means normalized growth mostly below about 0.91 (no sharp cut-off); inconclusive means no clear call, values can overlap the other calls; inactive means mostly above about 0.92. The list shows a part of the results.
Possible outcomes: TRUE = active, FALSE = inactive

molecule	class
CC[C@@H](CO)NCCN[C@@H](CC)CO	FALSE
Oc1c(Cl)c(Cl)c(Cl)c(Cl)c1Cl	TRUE
O=C(O)COc1cc(Cl)c(Cl)cc1Cl	FALSE
C=CC(=O)N1CCc2cc([N+](=O)[O-])ccc21	TRUE
NC(=O)c1ncn([C@@H]2O[C@H](CO)[C@@H](O)[C@H]2O)c1O	FALSE
COc1ccc(C2CC(=O)c3ccc(OC)cc3O2)cc1 (stereo unspecified)	FALSE
O=C1C[C@@H](c2ccc(O)cc2)Oc2cc(O)cc(O)c21	FALSE
COc1ccc([C@@H]2CC(=O)c3c(O)cc(O)cc3O2)cc1O	FALSE
COC(=O)COc1cc(Cl)c(Cl)cc1Cl	FALSE
CC(C)CC1C(=O)N2CCC[C@H]2C2(O)O[C@](NC(=O)C3C=C4c5cccc6[nH]c(Br)c(c56)C[C@H]4N(C)C3)(C(C)C)C(=O)N12 (stereo partly specified)	FALSE
NCCCN=c1ccc2c3c1c(O)c1c(O)ccc(=O)c1c3[nH]n2CCNCCO	FALSE

====

Measured normalized growth of individual entries
# test: chemical genetic growth profiling, strain panel (AID 1159580);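 also: tested at 20 µM; growth read once vehicle control cultures reached saturation at 30 °C; 1 = growth at the plate median or of vehicle wells; lower values mean less growth of the strain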
# setupConditions: S. cerevisiae deletion strains, growth OD, locus YDR150W, strain NUM1, hits give low values
About 2,000 (36%) of roughly 5,500 compounds were called active. About 18% were inconclusive and are not listed. The list shows a part of the results.

compound	normalized growth
CCC1(c2ccccc2)C(=O)NCNC1=O	0.992
C=C1CC[C@H](O)C/C1=C/C=C1\CCC[C@]2(C)C([C@H](C)/C=C/[C@H](C)C(C)C)CC[C@@H]12 (stereo partly specified)	0.977
O=C(O)C1C(O)CCC2CN3CCc4c([nH]c5ccccc45)C3CC21 (stereo unspecified)	1.01
CC(C)(C)OC(=O)N1CCC(C(N)=O)CC1	1.01
COC(=O)c1cc(OC)c(OC)c(OC)c1NS(=O)(=O)c1cc(OC)ccc1OC	0.984
COc1cc(C(O)C(=O)O)ccc1O (stereo unspecified)	0.994
CN=C(NC#N)NCCSCc1nc[nH]c1C	1
Cc1cc(=O)n2c(-c3ccc(Cl)cc3)csc2n1	0.976
COC(=O)[C@H]1[C@H]2C[C@H]3c4[nH]c5ccccc5c4CCN3C[C@H]2CC[C@@H]1O	1.01
C[N+](C)(C)CCOP(=O)([O-])OP(=O)(O)OC[C@H]1OC(n2ccc(N)nc2=O)[C@H](O)[C@@H]1O (stereo partly specified)	1
CCCCOc1ccc(CC(=O)NO)cc1	0.992
N#Cc1c(Cl)c(Cl)c(Cl)c(C#N)c1Cl	1.01
O=C(/C=C/C=C/c1ccc2c(c1)OCO2)N1CCCCC1	0.986
CCC(C(=O)O)c1ccccc1 (stereo unspecified)	1.01
COc1ccc(OC)c(C(=O)c2cc(OC)c(OC)c(OC)c2)c1	1.01
O=c1ccc2ccccc2o1	1
COc1ccccc1C1CCN(C(=O)c2ccc(F)cc2)CC1	0.988
FC(F)(F)c1ccnc(-n2ccc(-c3cccs3)n2)n1	0.987
C[CH2][Hg][S]c1ccccc1C(=O)O	0.058
CCc1nc(N)nc(N)c1-c1ccc(Cl)cc1	1.01
COC(=O)C1[C@H]2C[C@H]3c4[nH]c5ccccc5c4CCN3C[C@@H]2CC[C@@H]1O (stereo partly specified)	1.01
C[C@H](NC(=O)/C(C#N)=C/c1ccc(O)c(O)c1)c1ccccc1	0.936
O=C(CSc1ccc(C(F)(F)F)cn1)N1CCc2c([nH]c3ccccc23)C1C(F)(F)F (stereo unspecified)	1.02
CC(C)CC1C(=O)N2CCC[C@H]2C2(O)O[C@](NC(=O)C3C=C4c5cccc6[nH]c(Br)c(c56)C[C@H]4N(C)C3)(C(C)C)C(=O)N12 (stereo partly specified)	0.976
Cc1nc(N=Nc2ccc(C(=O)O)cc2)c(COP(=O)(O)O)c(C=O)c1O	1.02
CCCCOc1ccc(OCCCN2CCOCC2)cc1	0.984
N#CC(Cc1ccc(O)c(O)c1)C(=O)N1CCc2ccccc21 (stereo unspecified)	0.997
COc1ccc2cc1Oc1ccc(cc1)C[C@H]1c3cc(c(OC)cc3CCN1C)Oc1c(OC)c(OC)cc3c1[C@H](C2)N(C)CC3	1.01
COc1ccc(C(=O)c2ccccc2O)c(O)c1	0.961
CCCCOc1ccc(C(=O)CCC(=O)O)cc1	0.934
CC(=C(CCOP(=O)(O)O)SC(=O)c1ccccc1)N(C=O)Cc1cnc(C)nc1N	1.01
CCCC[N+]1(C)C2CC(OC(=O)[C@H](CO)c3ccccc3)CC1C1OC12 (stereo partly specified)	1
CCC1(c2ccc(N)cc2)CCC(=O)NC1=O (stereo unspecified)	1
O=C(O)[C@H]1NCCC[C@H]1C(=O)O	1.01
NC(N)=NOCC[C@H](N)C(=O)O	0.984
Cc1ccc(C(=O)C(C)CN2CCCCC2)cc1 (stereo unspecified)	1
CN(C)C=Nc1nc2c(s1)CCc1ccccc1-2	0.934
CC(C(=O)O)c1ccc2c(c1)[nH]c1ccc(Cl)cc12 (stereo unspecified)	1.02
C[C@H]1OC[C@@H](C[N+](C)(C)C)O1	1
O=C(O)COCC(=O)N1CCc2c([nH]c3ccccc23)C1C(F)(F)F (stereo unspecified)	0.949
NC[C@@H]1O[C@H](O[C@@H]2[C@@H](CO)OC(O[C@@H]3[C@@H](O)[C@H](N)C[C@H](N)[C@H]3OC3O[C@H](CN)[C@@H](O)[C@H](O)[C@H]3N)[C@@H]2O)[C@H](N)[C@@H](O)[C@@H]1O (stereo partly specified)	1.01
NC(N)=Nc1nc(CSCCC(N)=NS(N)(=O)=O)cs1	0.996
O=C(O)c1cc(=O)c2ccc(Cl)cc2[nH]1	1.01
CCCCOc1cc(C(=O)O)ccc1OC	0.988
COc1ccc(-c2coc3c(OC)c(OC)cc(OC)c3c2=O)cc1	0.991
NC(=O)N1c2ccccc2CC(=O)c2ccccc21	1
